# EXPERIMENTAL_SYSTEM: IL-17AA and IL-17RA (Homo sapiens, UniProt Q16552)
# Construct: 10895-H02H (IL-17RA)
# Sequence (Q16552 24-155): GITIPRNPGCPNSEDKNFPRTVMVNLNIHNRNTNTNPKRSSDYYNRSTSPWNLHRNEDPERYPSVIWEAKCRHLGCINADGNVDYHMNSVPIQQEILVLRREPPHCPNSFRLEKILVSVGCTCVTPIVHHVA
# PROTOCOL: Competitive inhibition of human IL-17AA and IL-17RA binding (HTRF)
# REPORTED_CONDITIONS: recombinant IL-17AA (His-tag) and IL-17RA (hFc-tag); read-out: IC50 for Inhibiting IL-AA/IL-RA Binding
pIC50: −log10 of the molar value.
PROPERTY_MEASURED: pIC50

Past entries and their recorded results:
| SMI | EXPERIMENTAL_SYSTEM | pIC50 |
| --- | --- | --- |
| COCC(=O)N[C@@H](c1nncn1CC1CC1)[C@@H](C)c1ccc(NC(=O)[C@@H](NC(=O)COc2cc(C(F)F)ccn2)C(C2CC2)C2CC2)c(F)c1 | IL-17AA and IL-17RA (Homo sapiens, UniProt Q16552) | 7.40 |
| CCC(=O)N[C@@H](c1ncccc1CC1CC1)[C@@H](C)c1ccc(NC(=O)[C@@H](NC(=O)c2ccnn2CC)C(C2CC2)C2CC2)c(F)c1 | IL-17AA and IL-17RA (Homo sapiens, UniProt Q16552) | 8.25 |

I: CCn1nccc1C(=O)N[C@H](C(=O)Nc1ccc([C@H](C)[C@H](NC(=O)COC)c2nncn2CC2CC2)cc1F)C(C1CC1)C1CC1
II: [2H]C([2H])([2H])C([2H])([2H])C(=O)N[C@@H](c1ncnn1CC1CC1)[C@@H](C)c1ccc(NC(=O)[C@@H](NC(=O)c2nonc2C)C(C2CC2)C2CC2)c(F)c1
III: CCn1nccc1C(=O)N[C@H](C(=O)Nc1ccc([C@H](C)[C@@H](NC(=O)COC)c2nncn2CC2CC2)cc1F)C(C1CC1)C1CC1
IV: CCn1nccc1C(=O)N[C@H](C(=O)Nc1ccc([C@H](C)[C@@H](NC(=O)COC)c2nnc3cnccn23)cc1F)C(C1CC1)C1CC1
Q. Hey, quick one: sort these by pIC50, largest value first please. # list labels per requested ordering
A. II, III, IV, I
(II: 8.96, III: 8.14, IV: 7.64, I: 6.90)

---

# EXPERIMENTAL_SYSTEM: IL-17AA and IL-17RA (Homo sapiens)
# Construct: 10895-H02H (IL-17RA)
# Sequence (Q16552 24-155): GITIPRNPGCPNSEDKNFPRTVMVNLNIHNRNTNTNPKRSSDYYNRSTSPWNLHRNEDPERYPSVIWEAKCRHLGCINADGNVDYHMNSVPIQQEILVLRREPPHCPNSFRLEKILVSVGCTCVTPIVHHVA
# PROTOCOL: Competitive inhibition of human IL-17AA and IL-17RA binding (HTRF)
# REPORTED_CONDITIONS: recombinant IL-17AA (His-tag) and IL-17RA (hFc-tag); read-out: IC50 for Inhibiting IL-AA/IL-RA Binding
PROPERTY_MEASURED: IC50 (nM)

For orientation, consider the following solved cases.
| COMPOUND | REPORTED |
| --- | --- |
| CCn1nccc1C(=O)N[C@H](C(=O)Nc1ccc([C@H](C)[C@@H](NC(=O)COC)c2ncnn2CC(C)C)cc1F)C(C1CC1)C1CC1 [Compound 36] | 3.7 |
| CCn1nccc1C(=O)N[C@H](C(=O)Nc1ccc([C@H](C)[C@@H](NC(=O)[C@H](C)OC)c2nncn2CC2CC2)cc1F)C(C1CC1)C1CC1 [Compound 16] | 6.3 |

I: CCn1nccc1C(=O)N[C@H](C(=O)Nc1ccc([C@H](C)[C@@H](NC(=O)COC)c2ncnn2CC2CC2)cc1F)C1CCC(C)CC1 (stereo partly drawn) [Compound 41]
II: [2H]C([2H])([2H])n1nccc1C(=O)N[C@@H](C(=O)Nc1ccc([C@H](C)[C@@H](NC(=O)CC)c2ncnn2CC2CC2)cc1F)C(C1CC1)C1CC1 [Compound 85]
III: Cc1nonc1C(=O)N[C@H](C(=O)Nc1ccc([C@H](C)[C@@H](NC(=O)COC2CN(C)C2)c2ncnn2CC2CC2)cc1F)C(C1CC1)C1CC1 [Compound 56]
IV: CCn1nccc1C(=O)N[C@H](C(=O)Nc1ccc([C@H](C)[C@@H](NC(=O)COC)c2nccn2CC2CC2)cc1F)C(C1CC1)C1CC1 [Compound 38]
Q. Rank order required: IC50, descending. Could you list the labels in the order requested?
A. II, III, IV, I

Measured values drawn from patent US20260083708A1 for this set.
